# targetOfAssay: Nav 1.7 (Homo sapiens (Human))
# assayProcedure: Nav 1.7 in vitro PX assay (PatchXpress whole cell voltage clamp)
# Format: cell-based
# testParameters: 293 cells, human Nav1.7, partially inactivated state; read-out: Nav1.7 PX IC50 IP
Listed next: entries and their corresponding pIC50.
Value format note: pIC50 is -log10 of concentration (mol/L); just state the number.

Known results for compounds:
compound="COc1cc(C2(F)COC2)ccc1-c1nc(C)nc2cc(S(=O)(=O)Nc3nccs3)ccc12 [Example 516]" metricname=pIC50 numericvalue=5.98
compound="COc1cc(C(F)F)ccc1-c1nc(C)nc2cc(S(=O)(=O)Nc3nccs3)ccc12 [Example 515]" metricname=pIC50 numericvalue=6.32
compound="Cn1ccnc1-c1cc(C(F)(F)F)ccc1-c1cccc2cc(S(=O)(=O)Nc3ccncn3)ccc12 [Example 124]" metricname=pIC50 numericvalue=6.30

Prompt: Please tell me: pIC50 of COc1cc(Oc2cccc(F)c2)ccc1-c1nccc2cc(S(=O)(=O)Nc3ccncn3)ccc12 [Example 464] , system Nav 1.7 (Homo sapiens (Human))?
Response: 6.42

---

# targetOfAssay: Nav 1.7 (Homo sapiens (Human), UniProt Q15858)
# Sequence (Q15858 whole entry): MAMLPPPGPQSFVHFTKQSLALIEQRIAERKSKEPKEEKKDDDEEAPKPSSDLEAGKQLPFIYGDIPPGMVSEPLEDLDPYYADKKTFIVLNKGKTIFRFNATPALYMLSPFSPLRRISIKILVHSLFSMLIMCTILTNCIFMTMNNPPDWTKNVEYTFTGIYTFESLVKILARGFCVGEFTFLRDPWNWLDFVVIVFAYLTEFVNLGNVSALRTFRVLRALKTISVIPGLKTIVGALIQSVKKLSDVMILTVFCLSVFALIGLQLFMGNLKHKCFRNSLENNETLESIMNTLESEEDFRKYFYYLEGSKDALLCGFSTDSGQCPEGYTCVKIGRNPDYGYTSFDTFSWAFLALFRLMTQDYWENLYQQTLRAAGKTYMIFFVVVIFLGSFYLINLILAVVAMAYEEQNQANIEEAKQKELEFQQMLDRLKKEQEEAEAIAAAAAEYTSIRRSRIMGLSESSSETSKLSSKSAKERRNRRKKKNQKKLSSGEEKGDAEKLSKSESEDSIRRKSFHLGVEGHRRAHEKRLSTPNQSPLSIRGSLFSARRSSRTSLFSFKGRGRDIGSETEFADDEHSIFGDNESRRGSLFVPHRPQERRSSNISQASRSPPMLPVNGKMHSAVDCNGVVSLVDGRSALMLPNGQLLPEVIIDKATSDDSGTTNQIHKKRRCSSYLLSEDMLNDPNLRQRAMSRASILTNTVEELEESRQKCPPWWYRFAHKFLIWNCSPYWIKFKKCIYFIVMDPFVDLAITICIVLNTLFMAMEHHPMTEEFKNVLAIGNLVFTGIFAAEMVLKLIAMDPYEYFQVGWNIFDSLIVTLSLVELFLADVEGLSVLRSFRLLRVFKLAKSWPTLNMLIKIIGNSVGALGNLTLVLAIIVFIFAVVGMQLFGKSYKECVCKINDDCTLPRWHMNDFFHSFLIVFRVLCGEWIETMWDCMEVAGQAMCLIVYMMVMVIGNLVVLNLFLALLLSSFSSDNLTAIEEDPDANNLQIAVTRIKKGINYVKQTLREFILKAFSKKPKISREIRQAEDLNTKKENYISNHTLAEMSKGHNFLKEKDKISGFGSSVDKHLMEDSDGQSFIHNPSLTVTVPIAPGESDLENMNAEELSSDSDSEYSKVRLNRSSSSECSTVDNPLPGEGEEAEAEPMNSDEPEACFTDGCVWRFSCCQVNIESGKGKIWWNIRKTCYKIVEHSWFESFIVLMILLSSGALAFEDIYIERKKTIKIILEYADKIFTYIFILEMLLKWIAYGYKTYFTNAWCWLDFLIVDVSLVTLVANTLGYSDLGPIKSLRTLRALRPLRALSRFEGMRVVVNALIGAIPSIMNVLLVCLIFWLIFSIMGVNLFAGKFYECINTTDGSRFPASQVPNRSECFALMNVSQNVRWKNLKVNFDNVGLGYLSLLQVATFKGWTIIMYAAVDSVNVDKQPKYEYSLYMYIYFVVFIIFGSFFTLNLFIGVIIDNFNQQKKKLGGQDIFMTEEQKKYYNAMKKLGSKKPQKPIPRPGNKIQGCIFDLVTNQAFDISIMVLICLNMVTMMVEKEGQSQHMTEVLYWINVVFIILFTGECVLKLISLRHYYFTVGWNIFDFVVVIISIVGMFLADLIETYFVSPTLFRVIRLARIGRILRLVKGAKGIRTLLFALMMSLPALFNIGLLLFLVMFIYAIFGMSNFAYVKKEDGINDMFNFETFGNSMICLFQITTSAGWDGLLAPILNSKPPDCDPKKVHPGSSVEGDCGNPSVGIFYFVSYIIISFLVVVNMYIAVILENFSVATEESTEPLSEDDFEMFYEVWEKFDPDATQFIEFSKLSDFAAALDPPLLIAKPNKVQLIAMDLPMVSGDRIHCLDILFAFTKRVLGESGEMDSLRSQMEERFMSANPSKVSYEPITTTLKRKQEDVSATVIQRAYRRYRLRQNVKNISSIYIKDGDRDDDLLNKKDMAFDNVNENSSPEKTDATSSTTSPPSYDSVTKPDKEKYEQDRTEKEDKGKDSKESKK
# assayProcedure: Nav 1.7 in vitro PX assay (PatchXpress whole cell voltage clamp)
# Assay type: cell-based
# testParameters: 293 cells, human Nav1.7, partially inactivated state; read-out: Nav1.7 PX IC50 IP
metricName: IC50 (nM)
Express the result in nM but write the number alone.

molecule="COc1ccccc1-c1ccnc2cc(S(=O)(=O)Nc3nccs3)ccc12 [Example 277]" numericvalue=340
molecule="COc1cc(-c2ccc(F)c(F)c2)ccc1-c1ncnc2cc(S(=O)(=O)Nc3nncs3)ccc12 [Example 530]" numericvalue=233
molecule="O=S(=O)(Nc1nccs1)c1ccc2c([C@H]3CCCN3C3CCOCC3)cccc2c1 [Example 104]" numericvalue=1990

Next molecule, IC50 to be filled in.
Prompt: Entry COc1ncc(C)cc1-c1nccc2cc(S(=O)(=O)Nc3nccs3)ccc12 [Example 411] has what IC50?
Response: 685

---

# targetOfAssay: Nav 1.7 (Homo sapiens (Human))
# assayProcedure: Nav 1.7 IWQ in vitro assay (IonWorks Quattro population patch-clamp)
# Format: cell-based
# testParameters: 293 cells stably transfected with Nav 1.7; first part of table; read-out: Nav 1.7 IWQ IC50
Listed compounds paired with reported IC50
Numeric only. Scale: nM

compound="O=S(=O)(Nc1ncns1)c1ccc2c(-c3ccc(F)cc3Br)cccc2c1 [Example 3]" numericvalue=90
compound="O=S(=O)(Nc1ccncn1)c1ccc2c(-c3ccc(C(F)(F)F)cc3C3=CCNCC3)cccc2c1 [Example 48]" numericvalue=30
compound="O=S(=O)(Nc1ncns1)c1ccc2c(-c3ccc(C(F)(F)F)cc3-c3cn[nH]c3)cccc2c1 [Example 21]" numericvalue=20
compound="COc1ccc(-c2nccc3cc(S(=O)(=O)Nc4ncns4)ccc23)c(OC)c1 [Example 59]" numericvalue=60
compound="NC(=O)c1cc(C(F)(F)F)ccc1-c1cccc2cc(S(=O)(=O)Nc3ncns3)ccc12 [Example 32]" numericvalue=170
compound="O=S(=O)(Nc1ncns1)c1ccc2c(-c3ccc(Cl)cc3OC(F)F)cccc2c1 [Example 24]" numericvalue=30
compound="CC(C)(O)C1CN(c2cccc3cc(S(=O)(=O)Nc4ncns4)ccc23)CCO1 (stereo not shown) [Example 20]" numericvalue=3140
compound="CCC1CN(c2cccc3cc(S(=O)(=O)Nc4ncns4)ccc23)CCO1 (stereo not shown) [Example 18]" numericvalue=710

Prompt: Any idea what IC50 came out for Cn1nccc1-c1cc(C(F)(F)F)ccc1-c1nccc2cc(S(=O)(=O)Nc3ncns3)ccc12 [Example 54] on Nav 1.7 (Homo sapiens (Human))?
Response: 40

Prompt: Record Cc1cc(Cl)ccc1-c1nccc2cc(S(=O)(=O)Nc3ncns3)ccc12 [Example 62] : what is its IC50 with Nav 1.7 (Homo sapiens (Human))?
Response: 90

Prompt: For Nav 1.7 (Homo sapiens (Human)), provide IC50 of COc1cc(Cl)ccc1-c1cccc2cc(S(=O)(=O)Nc3nccs3)ccc12 [Example 46] please.
Response: 36

Prompt: Provide value of IC50 for this record tested with Nav 1.7 (Homo sapiens (Human)): CN1CC=C(c2cc(C(F)(F)F)ccc2-c2cccc3cc(S(=O)(=O)Nc4nccs4)ccc23)CC1 [Example 78]
Response: 90

Prompt: // fetch Nav 1.7 (Homo sapiens (Human)) IC50 for O=S(=O)(Nc1ccncn1)c1ccc2c(-c3ccc(C(F)(F)F)cc3-c3ccncc3)cccc2c1 [Example 75]
Response: 100

---

# targetOfAssay: Nav 1.7 (Homo sapiens (Human), UniProt Q15858)
# assayProcedure: Nav 1.7 in vitro PX assay (PatchXpress whole cell voltage clamp)
# Type: cell-based
# testParameters: 293 cells, human Nav1.7, partially inactivated state; read-out: Nav1.7 PX IC50 IP
# Description: Nav 1.7 In Vitro PX Assay 293 cells stably transfected with human Nav1.7 were recorded in whole cell voltage clamp mode with the PatchXpress automated electrophysiology system (Molecular Devices, LLC, Sunnyvale, Calif.). Compound effects were measured on a partially inactivated state of the sodium channel. Cells were clamped to a holding potential yielding 20 to 50% inactivation. […] Peak sodium current was measured at the end of the compound addition period to determine percent inhibition. […]
Let's look at some compounds and their measured IC50.
Answer format: numeric, nM implied, no suffix.

Some compounds with recorded IC50:
compound=COc1cc(-c2ccc(F)c(Cl)c2)ccc1-c1nccc2cc(S(=O)(=O)Nc3ccncn3)ccc12 outputunit=nM numericvalue=62
compound=N#CCOc1ccccc1-c1ncc(F)c2cc(S(=O)(=O)Nc3nccs3)ccc12 outputunit=nM numericvalue=197
compound=O=S(=O)(Nc1nccs1)c1ccc2c(-c3ccc(F)cc3Oc3ccccn3)nccc2c1 outputunit=nM numericvalue=13900

Prompt: What value of IC50 has been recorded for this entry: COc1cc(-c2cc(C)cc(C)c2)ccc1-c1nccc2cc(S(=O)(=O)Nc3ccncn3)ccc12
Response: 180

Prompt: Using the record for COC(=N)c1cc(C(F)(F)F)ccc1-c1nccc2cc(S(=O)(=O)Nc3nccs3)ccc12 , report its IC50.
Response: 600

Prompt: Value lookup for IC50; key = CC(C#N)Oc1cc(F)ccc1-c1nccc2cc(S(=O)(=O)Nc3nccs3)ccc12 (centres unmarked)
Response: 1070

Prompt: GET /values?readout=IC50&item= COc1cc(-c2cccnc2F)ccc1-c1nccc2cc(S(=O)(=O)Nc3ccncn3)ccc12
Response: 1360

Prompt: Requested field: IC50. Item: COc1cc(C(F)F)c(OC)cc1-c1nccc2cc(S(=O)(=O)Nc3ccncn3)ccc12
Response: 4880

Prompt: Which IC50 is listed for COc1cc(-c2cnc(F)c(C)c2)ccc1-c1nccc2cc(S(=O)(=O)Nc3ccncn3)ccc12 ?
Response: 788

Prompt: Quick check: IC50 of COc1ccc(-c2cccc(F)c2)cc1-c1n[nH]c(=O)c2cc(S(=O)(=O)Nc3ccncn3)ccc12 ?
Response: 218

---

# targetOfAssay: Nav 1.5 (Homo sapiens (Human))
# Sequence (Q14524 whole entry): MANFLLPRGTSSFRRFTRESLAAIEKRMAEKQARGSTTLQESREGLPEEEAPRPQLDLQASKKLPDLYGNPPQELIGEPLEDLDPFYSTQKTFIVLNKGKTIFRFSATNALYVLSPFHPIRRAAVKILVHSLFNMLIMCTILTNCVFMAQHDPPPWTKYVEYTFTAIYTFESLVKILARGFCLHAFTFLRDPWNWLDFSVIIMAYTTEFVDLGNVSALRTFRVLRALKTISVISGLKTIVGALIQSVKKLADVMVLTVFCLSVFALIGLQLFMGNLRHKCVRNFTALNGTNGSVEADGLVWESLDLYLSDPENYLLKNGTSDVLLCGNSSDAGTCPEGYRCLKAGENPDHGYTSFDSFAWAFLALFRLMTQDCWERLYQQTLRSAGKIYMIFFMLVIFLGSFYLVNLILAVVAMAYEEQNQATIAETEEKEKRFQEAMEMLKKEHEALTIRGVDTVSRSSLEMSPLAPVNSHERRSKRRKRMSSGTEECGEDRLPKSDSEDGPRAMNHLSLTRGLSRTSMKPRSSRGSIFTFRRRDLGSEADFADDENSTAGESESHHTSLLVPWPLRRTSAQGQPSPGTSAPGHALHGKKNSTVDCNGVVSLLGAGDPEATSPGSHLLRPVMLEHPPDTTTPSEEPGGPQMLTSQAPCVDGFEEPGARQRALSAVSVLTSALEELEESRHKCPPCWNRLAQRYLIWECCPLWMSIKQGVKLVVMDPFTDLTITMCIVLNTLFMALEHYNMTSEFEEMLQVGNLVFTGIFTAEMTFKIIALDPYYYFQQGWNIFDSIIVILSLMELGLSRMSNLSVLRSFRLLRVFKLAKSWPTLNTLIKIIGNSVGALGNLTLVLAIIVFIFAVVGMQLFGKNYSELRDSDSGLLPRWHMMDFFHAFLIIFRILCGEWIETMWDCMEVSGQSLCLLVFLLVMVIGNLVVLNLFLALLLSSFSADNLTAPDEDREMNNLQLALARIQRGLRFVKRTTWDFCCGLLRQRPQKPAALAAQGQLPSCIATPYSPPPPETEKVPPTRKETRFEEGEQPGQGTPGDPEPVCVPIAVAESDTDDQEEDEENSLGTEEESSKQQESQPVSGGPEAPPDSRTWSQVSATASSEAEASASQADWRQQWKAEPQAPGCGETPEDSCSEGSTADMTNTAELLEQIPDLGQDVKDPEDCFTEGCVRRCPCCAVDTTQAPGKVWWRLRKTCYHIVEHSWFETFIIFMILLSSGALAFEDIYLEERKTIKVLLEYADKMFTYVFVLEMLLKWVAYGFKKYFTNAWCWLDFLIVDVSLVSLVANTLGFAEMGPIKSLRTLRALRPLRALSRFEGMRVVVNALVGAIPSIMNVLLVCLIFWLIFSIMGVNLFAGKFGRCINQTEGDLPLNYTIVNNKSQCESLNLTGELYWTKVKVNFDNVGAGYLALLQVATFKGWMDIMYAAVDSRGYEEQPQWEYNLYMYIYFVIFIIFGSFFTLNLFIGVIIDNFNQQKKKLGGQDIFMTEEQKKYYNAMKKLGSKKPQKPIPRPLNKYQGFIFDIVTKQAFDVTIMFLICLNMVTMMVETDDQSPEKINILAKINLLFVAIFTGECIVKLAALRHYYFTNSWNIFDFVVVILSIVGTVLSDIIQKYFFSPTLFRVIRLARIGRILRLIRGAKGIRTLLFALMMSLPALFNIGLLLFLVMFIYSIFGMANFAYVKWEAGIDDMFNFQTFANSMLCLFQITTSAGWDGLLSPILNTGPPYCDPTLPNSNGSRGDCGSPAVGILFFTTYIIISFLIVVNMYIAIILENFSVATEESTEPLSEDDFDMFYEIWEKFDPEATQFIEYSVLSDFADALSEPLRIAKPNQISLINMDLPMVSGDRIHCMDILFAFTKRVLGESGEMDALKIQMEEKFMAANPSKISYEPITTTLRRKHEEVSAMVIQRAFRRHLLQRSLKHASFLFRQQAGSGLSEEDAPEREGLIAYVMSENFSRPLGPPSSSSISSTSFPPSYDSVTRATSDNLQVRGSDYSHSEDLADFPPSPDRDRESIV
# assayProcedure: Nav 1.5 in vitro PX assay (PatchXpress whole cell voltage clamp)
# Type: cell-based
# testParameters: 293 cells stably transfected with Nav 1.5; first part of table; read-out: Nav 1.5 PX IC50
metricName: IC50 (µM)
Give the quantity in µM, number only.

samplesmiles=O=S(=O)(Nc1ncns1)c1ccc2c(-c3ccc(OC(F)(F)F)cc3Cl)cccc2c1 targetofassay="Nav 1.5 (Homo sapiens (Human))" outputunit=µM numericvalue=10.9
samplesmiles=CCOc1cc(C(F)(F)F)ccc1-c1cccc2cc(S(=O)(=O)Nc3ncns3)ccc12 targetofassay="Nav 1.5 (Homo sapiens (Human))" outputunit=µM numericvalue=6.68
samplesmiles=Cc1cc(C(F)(F)F)ccc1-c1cccc2cc(S(=O)(=O)Nc3ncns3)ccc12 targetofassay="Nav 1.5 (Homo sapiens (Human))" outputunit=µM numericvalue=5.07
samplesmiles=O=S(=O)(Nc1ncns1)c1ccc2c(-c3ccccc3)cccc2c1 targetofassay="Nav 1.5 (Homo sapiens (Human))" outputunit=µM numericvalue=23.8
samplesmiles=O=S(=O)(Nc1ncns1)c1ccc2c(-c3ccc(F)cc3Br)cccc2c1 targetofassay="Nav 1.5 (Homo sapiens (Human))" outputunit=µM numericvalue=24.2

Prompt: Test system Nav 1.5 (Homo sapiens (Human)); read-out IC50; what value for O=S(=O)(Nc1ncns1)c1ccc2c(-c3ccc(Cl)cc3C(F)(F)F)cccc2c1 ?
Response: 7.77

Prompt: Nav 1.5 (Homo sapiens (Human)) / IC50 / O=S(=O)(Nc1ncns1)c1ccc2c(-c3ccc(F)cc3Cl)cccc2c1 : value?
Response: 23.8

Prompt: Request: IC50, test system Nav 1.5 (Homo sapiens (Human)), entry O=S(=O)(Nc1ncns1)c1ccc2c(-c3ccc(Cl)cc3F)cccc2c1
Response: 9.99

Prompt: Value wanted: IC50 (Nav 1.5 (Homo sapiens (Human))) of entry O=S(=O)(Nc1ncns1)c1ccc2c(-c3ccc(C(F)(F)F)cc3F)cccc2c1
Response: 15.1

Prompt: Under Nav 1.5 (Homo sapiens (Human)): IC50 value of COc1cc(Cl)ccc1-c1cccc2cc(S(=O)(=O)Nc3ncns3)ccc12 ?
Response: 19.9
